- method: Cmax in cynomolgus monkey at 1 mg/kg, iv or 5 mg/kg, po by LC-MS/MS method
- Assay type: ADME, organism-based, Macaca fascicularis
- experimentalSetup: in vivo
attributeMeasured: Cmax

[[record]]
moleculesmiles = "CNC(=O)N1CCc2c(c(N3CCCc4cc(-c5cnn(C)c5)c(C(F)F)cc43)nn2C2CCOCC2)C1"
datavalue = "1900 nM"

[[record]]
moleculesmiles = "CC(=O)N1CCc2c(c(N3CCCc4cc(-c5cnn(C)c5)c(C(F)F)cc43)nn2C2CCOCC2)C1"
datavalue = "1600 nM"


###

- method: Clearance in beagle dog at 1 mg/kg, iv or 5 mg/kg, po by LC-MS/MS method
- Type: ADME, organism-based, Canis lupus familiaris
- experimentalSetup: in vivo
attributeMeasured: clearance (mL/min/kg)

[[record]]
moleculesmiles = "CC(=O)N1CCc2c(c(N3CCCc4cc(-c5cnn(C)c5)c(C(F)F)cc43)nn2C2CCOCC2)C1"
datavalue = 4.6

[[record]]
moleculesmiles = "CNC(=O)N1CCc2c(c(N3CCCc4cc(-c5cnn(C)c5)c(C(F)F)cc43)nn2C2CCOCC2)C1"
datavalue = 4.8

